Recorded chromatographic logP, one value per entry.
- METHOD DESCRIPTION: logP determination by HPLC on reverse-phase column (C 18), EEC Directive 79/831 Annex V.A8
- Type: physicochemical
- STATED CONDITIONS: reverse-phase C18 HPLC column; pH 2.3; HPLC reverse-phase C 18; 43° C.; 0.1% aqueous phosphoric acid/acetonitrile gradient

[
  {
    "MOLECULE": "Cc1nc(C(F)F)c(C(=O)Nc2ccccc2-c2ccc(Br)cc2)s1 [Example 2]",
    "chromatographic logP": 3.47
  },
  {
    "MOLECULE": "Cc1nc(C(F)F)c(C(=O)Nc2ccccc2-c2ccc(Cl)cc2C)s1 [Example 10]",
    "chromatographic logP": 3.77
  },
  {
    "MOLECULE": "Cc1nc(C(F)F)c(C(=O)Nc2ccccc2-c2ccc(F)c(Cl)c2)s1 [Example 1]",
    "chromatographic logP": 3.28
  },
  {
    "MOLECULE": "Cc1nc(C(F)F)c(C(=O)Nc2ccccc2-c2ccc(F)cc2)s1 [Example 7]",
    "chromatographic logP": 3.09
  },
  {
    "MOLECULE": "Cc1nc(C(F)F)c(C(=O)Nc2ccccc2-c2ccc(Cl)c(F)c2)s1 [Example 11]",
    "chromatographic logP": 3.29
  },
  {
    "MOLECULE": "Cc1nc(C(F)F)c(C(=O)Nc2ccccc2-c2ccc(C)c(Cl)c2)s1 [Example 12]",
    "chromatographic logP": 3.62
  },
  {
    "MOLECULE": "Cc1nc(C(F)F)c(C(=O)Nc2ccccc2-c2ccc(C(F)(F)F)cc2)s1 [Example 3]",
    "chromatographic logP": 3.52
  },
  {
    "MOLECULE": "Cc1nc(C(F)F)c(C(=O)Nc2ccccc2-c2ccc(OC(F)(F)F)cc2)s1 [Example 5]",
    "chromatographic logP": 3.72
  },
  {
    "MOLECULE": "Cc1nc(C(F)F)c(C(=O)Nc2ccccc2-c2cccc(Cl)c2)s1 [Example 4]",
    "chromatographic logP": 3.37
  },
  {
    "MOLECULE": "Cc1nc(C(F)F)c(C(=O)Nc2ccccc2-c2ccc(Cl)cc2Cl)s1 [Example 9]",
    "chromatographic logP": 3.58
  },
  {
    "MOLECULE": "CSc1ccc(-c2ccccc2NC(=O)c2sc(C)nc2C(F)F)cc1 [Example 6]",
    "chromatographic logP": 3.39
  }
]
